Target: T1, mouse PAI-1 (mouse, UniProt P22777 24-401)
T1 sequence: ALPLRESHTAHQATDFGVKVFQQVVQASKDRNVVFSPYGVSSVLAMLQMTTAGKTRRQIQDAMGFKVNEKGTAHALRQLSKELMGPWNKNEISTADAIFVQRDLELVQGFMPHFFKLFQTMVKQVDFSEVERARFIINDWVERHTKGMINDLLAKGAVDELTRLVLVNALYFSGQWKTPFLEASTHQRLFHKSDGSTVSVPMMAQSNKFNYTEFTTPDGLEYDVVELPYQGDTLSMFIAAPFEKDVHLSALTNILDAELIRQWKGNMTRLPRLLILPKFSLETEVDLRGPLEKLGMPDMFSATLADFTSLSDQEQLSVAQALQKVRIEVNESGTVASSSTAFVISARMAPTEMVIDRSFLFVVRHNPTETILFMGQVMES
Test: cell-based or functional assay

binder	Chromogenic IC50 ratio mouse/human [fold]
Antibody 21 scFv (scFv) PVQLQQSGAEVKKPGSSVKVSCKASGGTFSSYAISWVRQAPGQGLEWMGGIIPTFGTANYAQKFQGRVTITADESTSTAYMELSGLRSEDTAVYYCAREKRQWLEGHFDYWGRGTPVTVSSDIQMAQSPSFLSASIGDRVTITCRASEGIYHNLAWYQQKPGKAPKLLIYRASSLASGAPSRFSGSGSGTDFTLTISSLQPDDFATYYCQQYSNYPLTFGGGTKLEIK	7.9
Antibody 22 scFv (scFv) QVQLQQSGAEVKKPGSSVKVSCKASGGTFSGYAISWVRQAPGQGLEWMGGIIPTFGTANYSQKFQGRVTITADESTSTAYMELSGLRSEDTAVYYCAREKRQWLEGHFDYWGRGTPVTVSSDIQMTQSLSFLSASIGDRVTITCRASEGIYHALAWYQQKPGKAPKLLIYRASSLASGAPSRFSGSGSGTDFTLTISSLQPDDFATYYCQQYSNYPLTFGGGTKLEIK	82.6
Antibody 06 scFv (scFv) QVQLQQSGAEVKKPGSSVKVSCKASGGTFSSYAISWVRQAPGQGLEWMGGIIPTFGTANYAQKFQGRVTITADESTSTAYMELSGLRSEDTAVYYCAREKRQWLEGHFDYWGRGTPVTVSSDIQMTQSPSFLSASIGDRVTITCRASEGIYHELAWYQQKPGKAPKLLIYRASSLASGAPSRFSGSGSGTDFTLTISSLQPDDFATYYCQQYSNYPLTFGRGTKLEIK	0.6
Antibody 01 IgG1, not germlined (antibody, V domains shown) VH: QVQLVQSGAEVKKPGSSVKVSCKASGGTFSSYAISWVRQAPGQGLEWMGGIIPIFGTANYAQKFQGRVTITADESTSTAYMELSSLRSEDTAVYYCAREKRQWLEGHFDYWGRGTLVTVSS VL: DIQMTQSPSTLSASVGDRVTITCRASEGIYRSLAWYQQKPGKAPKLLIYKASSLASGVPSRFSGSGSGTEFTLTISSLQPDDFATYYCQQYSNYPLTFGGGTKVEIK	20
Antibody 18 scFv (scFv) QVQLQQSGAEVKKPGSSVKVSCKASGGTFSSYAISWVRQAPGQGLEWMGGIIPTFGTANYAQKLQGRVTITADESTSTAYMELSGLRSEDTAVYYCAREKRQWLEGHFDYWGRGTPVTVSSDIQMTQSPSFLSASIGDRVTITCRASEGIYHALAWYQQKPGKAPKLLIYRASSLASGAPSRFSGSGSGTDFTLTISSLQPDDFATYYCQQYSNYPLTFGGGTKLEIK	255
Antibody 23 scFv (scFv) QVQLQQSGAEVKKPGSSVKVSCKASGGTFSSYAISWVRQAPGQGLEWMGGIIPTFGTANYAQKFQSRVTITADESTSTAYMELSGLRSEDTAVYYCAREKRQWLEGHFDYWGRGTPVTVSSDIQMTQSPSFLSASIGDRVTITCRASEGIYHSLAWYQQKPGKAPKLLIYRASSLASGAPSRFSGSGSGTDFTLTISSLQPDDFATYYCQQYSNYPLTFGGGTKLEIK	229
Antibody 02 IgG1, not germlined (antibody, V domains shown) VH: QVQLVQSGAEVKKPGSSVKVSCKASGGTFSSYAISWVRQAPGQGLEWMGGIIPTFGTANYAQKFQGRVTITADESTSTAYMELSSLRSEDTAVYYCAREKRQWLEGHFDYWGRGTLVTVSS VL: DIQMTQSPSTLSASVGDRVTITCRASEGIYHSLAWYQQKPGKAPKLLIYKASSLASGVPSRFSGSGSGTEFTLTISSLQPDDFATYYCQQYSDYPLTFGGGTKVEIK	104
Antibody 07 scFv (scFv) QVQLQQSGAEVKKPGSSVKVSCKASGGTFSSYAISWVRQAPGQGLEWVGGIIPTFGTANYAQKFQGRVTITADESTSTAYMELSGLRSEDTAVYYCAREKRQWLEGHFDYWGRGTPVTVSSDIQMAQSPSFLSASIGDRVTITCRASEGIYHELAWYQQKPGKAPKLLIYRASSLASGAPSRFSGSGSGTDFTLTISSLQPDDFATYYCQQYSNYPLTFGGGTKLEIK	0.8
Antibody 10 scFv (scFv) QVQLQQSGAEVKKPGSSVKVSCKASGGTFSSYAISWVRQAPGQGLEWMGGIIPTFGTANYAQKFQGRVTITADESTSTAYMELSSLRSEDTAVYYCAREKRQWLEGHFDYWGRGTPVTVSSDIQMTQSPSFLSASIGDRVAITCRASEGIYHSLAWYQQKPGKAPKLLIYRASSLASGAPSRFSGSGSGTDFTLTISSLQPDDFATYYCQQYSNYPLTFGGGTRLEIK	149
Antibody 17 scFv (scFv) QVQLQQSGAEVKKPGSSVKVSCKASGGTFSSYAISWVRQAPGQGLEWMGGIIPTFGTANYAQKFQGRVTITADESTSTAYMELSGLRSEDTAVYYCAREKRQWLEGHFDYWGRGTPVTVSSDIQMTQSPSFLSASIGDRVTITCRASEGIYHELAWYQQKPGKAPKLLIYRASSLASGAPSRFSGSGSGTDFTLTISSLQPDDFATYYCQQYSNYPLTFGGGTKLEIK	0.4
